- tested.on: JAK2 (Homo sapiens, UniProt O60674)
- Construct: 5 μl of catalytic domain recombinant Kinase enzyme+Tyr peptide substrate (Invitrogen, CA); purchased Invitrogen
- Sequence (O60674 849-1124 limits assumed): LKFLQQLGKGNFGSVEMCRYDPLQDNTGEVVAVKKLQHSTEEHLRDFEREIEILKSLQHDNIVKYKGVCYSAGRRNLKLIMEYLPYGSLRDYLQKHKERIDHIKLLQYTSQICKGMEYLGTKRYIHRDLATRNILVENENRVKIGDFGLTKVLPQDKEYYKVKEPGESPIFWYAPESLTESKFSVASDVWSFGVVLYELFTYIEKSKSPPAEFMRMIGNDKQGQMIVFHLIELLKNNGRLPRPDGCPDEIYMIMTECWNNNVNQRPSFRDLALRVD
- assay.details: Z'-LYTE kinase assay JAK2
- Assay type: biochemical
Provide the reported IC50 of each item.

{"input.smiles": "NC(=O)c1cnc(Nc2ccc(C3CCOCC3)cc2)cc1NCc1cccnc1", "tested.on": "JAK2 (Homo sapiens, UniProt O60674)", "recorded.value": "100 to 1000 nM"}
{"input.smiles": "COc1ccc(Nc2cc(NCc3c(F)cccc3F)c(C(N)=O)cn2)cc1", "tested.on": "JAK2 (Homo sapiens, UniProt O60674)", "recorded.value": "100 to 1000 nM"}
{"input.smiles": "NC(=O)c1cnc(Nc2cccc(N3CCOCC3)c2)cc1NCc1ccccc1", "tested.on": "JAK2 (Homo sapiens, UniProt O60674)", "recorded.value": "100 to 1000 nM"}
{"input.smiles": "NC(=O)c1cnc(Nc2ccc(-n3cccn3)nc2)cc1NCc1ccccc1", "tested.on": "JAK2 (Homo sapiens, UniProt O60674)", "recorded.value": "> 1000 nM"}
{"input.smiles": "Cc1cc(Nc2cc(NCc3cccc4ccsc34)c(C(N)=O)cn2)ccc1C(=O)N1CCC1", "tested.on": "JAK2 (Homo sapiens, UniProt O60674)", "recorded.value": "10 to 100 nM"}

Give measured IC50 for every item shown.
1. CNC(=O)Cc1ccc(Nc2cc(NCc3ccccc3)c(C(N)=O)cn2)cc1
2. NC(=O)c1cnc(Nc2ccc(C(=O)N3CCC3)cc2)cc1NCc1ccccc1
3. CC(=O)N(C)c1ccc(Nc2cc(NCc3cccc4ccsc34)c(C(N)=O)cn2)cc1
4. CC(=O)Nc1ccc(Nc2cc(NCc3cccc4[nH]ccc34)c(C(N)=O)cn2)cc1
5. CCC(=O)N1CCC(c2ccc(Nc3cc(NCc4cccc5[nH]ccc45)c(C(N)=O)cn3)cc2)CC1
6. NC(=O)c1cnc(Nc2ccc(N3CCCCC3)cc2)cc1NC1(c2ccccc2)CC1

# output
100 to 1000 nM
100 to 1000 nM
10 to 100 nM
10 to 100 nM
10 to 100 nM
> 1000 nM

I need IC50 for every entry listed below, if you could help.
1. CC(=O)N1CCC(CNc2cc(Nc3ccc(C(=O)N4CCCC4)cc3)ncc2C(N)=O)CC1
2. COc1ccc(Nc2cc(NC[C@H]3CCCN(C(C)=O)C3)c(C(N)=O)cn2)cc1

# output
1. > 1000 nM
2. 100 to 1000 nM

Provide the reported IC50 of each entry below, same order.
1. NC(=O)c1cnc(Nc2cccc(C(=O)N3CCCCC3)c2)cc1NCc1ccccc1
2. NC(=O)c1cnc(Nc2ccc(C3CCOCC3)cc2)cc1NCC1CCCC1

# output
["100 to 1000 nM", "100 to 1000 nM"]

The following molecules each have a reported value; give each one's IC50.
1. CC(=O)N1CCC(c2ccc(Nc3cc(NCc4ccccc4F)c(C(N)=O)cn3)cc2)CC1
2. NC(=O)c1cc(F)c(Nc2cccc(-n3nccn3)c2)nc1N

# output
1: 100 to 1000 nM; 2: > 1000 nM

----------
Give measured pIC50 for each item. Keep answers brief.
- tested.on: JAK2 (Homo sapiens, UniProt O60674)
- Construct: 5 μl of catalytic domain recombinant Kinase enzyme+Tyr peptide substrate (Invitrogen, CA)
- assay.details: Z'-LYTE kinase assay JAK2
pIC50: −log10 of the molar value.

Please review the following examples before continuing.
{"compound": "Cc1cc(Nc2cc(NCc3ccccc3)c(C(N)=O)cn2)ccc1C(=O)N1CCC1 [Example 448]", "pIC50": "7.00 to 8.00"}
{"compound": "NC(=O)c1cnc(Nc2ccc(C(=O)N3CCC3)cc2)cc1NCC1CCCC1 [Example 48]", "pIC50": "6.00 to 7.00"}
{"compound": "COC[C@@H](Nc1cc(Nc2ccc(N3CCOCC3)cc2)ncc1C(N)=O)c1ccccc1 [Example 262]", "pIC50": "6.00 to 7.00"}
{"compound": "CCC(=O)N1CCC(c2ccc(Nc3cc(N[C@H](C)C4CCCCC4)c(C(N)=O)cn3)cc2)CC1 [Example 191]", "pIC50": "< 6.00"}
{"compound": "NC(=O)c1cnc(Nc2ccc(Cl)cc2)cc1NCc1ccccc1 [Example 13]", "pIC50": "< 6.00"}

Batch request: pIC50 for each of the following compounds.
1. CC(=O)N1CCC[C@H](CNc2cc(Nc3ccc(C(=O)N(C)C)c(N(C)C)c3)ncc2C(N)=O)C1 [Example 445]
2. Cc1cc(Nc2cc(NCc3cccc4cc[nH]c34)c(C(N)=O)cn2)ccc1C(=O)N(C)C [Example 283]
3. CCC(=O)N1CCC(c2ccc(Nc3cc(NCC4CCCCC4)c(C(N)=O)cn3)cc2)CC1 [Example 192]

# output
["6.00 to 7.00", "7.00 to 8.00", "6.00 to 7.00"]

Where these numbers come from: patent US20150353495A1
